System Tested: T1, ZFP SBS#1469 (synthetic)
T1 chain: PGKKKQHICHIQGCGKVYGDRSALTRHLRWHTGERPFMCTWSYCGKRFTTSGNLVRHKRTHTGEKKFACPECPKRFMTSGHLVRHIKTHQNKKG
Test: EMSA
Details: tags: MBP fusion
pKd: −log10 of the molar value.
Attribute Measured: pKd

>>> print(df.to_string())
                                     binder  reported_measurement
0  GGTGATGTC (dsDNA) DNA 1: GGTGATGTC DNA 2: GACATCACC                  9.55
